Record set: IC50 | Prothrombin (Homo sapiens, UniProt P00734) | literature, multiple sources.

Please indicate recorded IC50 of O=C(Nc1ccc(Cl)cc1C(=O)Nc1ccc(Cl)cn1)c1ccc(CN2CCC(C(=O)O)CC2)cc1 measured with Prothrombin (Homo sapiens, UniProt P00734).
> 11 µM

Please indicate recorded IC50 of CCN(C)Cc1ccc(C(=O)Nc2ccc(Cl)cc2C(=O)Nc2ccc(Cl)cn2)cc1 measured with Prothrombin (Homo sapiens, UniProt P00734).
> 11 µM

Please indicate recorded IC50 of Cc1cc(C(=O)Nc2ccc(-c3ccccc3S(N)(=O)=O)cc2)n(-c2cc3ccccc3cc2S(C)(=O)=O)n1 measured with Prothrombin (Homo sapiens, UniProt P00734).
> 11 µM

Please indicate recorded IC50 of Cc1cc(C(=O)Nc2ccc(-c3ccccc3S(N)(=O)=O)cc2)n(-c2cc3ccccc3cc2Br)n1 measured with Prothrombin (Homo sapiens, UniProt P00734).
> 11 µM

Please indicate recorded IC50 of NC(N)=NCCC[C@H](NC(=O)[C@H](Cc1ccc([N+](=O)[O-])cc1)NC(=O)[C@@H](Cc1ccccc1)NS(=O)(=O)Cc1ccccc1)C(=O)c1nccs1 measured with Prothrombin (Homo sapiens, UniProt P00734).
> 30 µM

Please indicate recorded IC50 of O=C(Cc1ccc2[nH]c(-c3ccc(Cl)s3)nc2c1)Nc1ccc(N2CCCC2=O)cc1 measured with Prothrombin (Homo sapiens, UniProt P00734).
> 10 µM

Please indicate recorded IC50 of C/C(=C(\F)C(=O)Nc1ccc(-c2ccccc2S(N)(=O)=O)cc1Cl)c1ccc2ccnc(N)c2c1 measured with Prothrombin (Homo sapiens, UniProt P00734).
5.4 µM

Please indicate recorded IC50 of N=C(N)NCCC[C@H](NC(=O)[C@H](Cc1cc(F)cc(F)c1)NC(=O)[C@@H](Cc1ccccc1)NS(=O)(=O)Cc1ccccc1)C(=O)c1nccs1 measured with Prothrombin (Homo sapiens, UniProt P00734).
6.82 µM

Please indicate recorded IC50 of COc1cccc(-c2ccc3c(c2)C[C@@H]2OC(=O)C(C)(CCCCC(=N)N)[C@@H]32)c1 (stereo partly specified) measured with Prothrombin (Homo sapiens, UniProt P00734).
1.8 µM

Please indicate recorded IC50 of N/N=C(/N)c1ccc(CNC(=O)Cn2c(-c3cccc(N)c3)c(Cl)nc(NC3CCC3)c2=O)cc1 measured with Prothrombin (Homo sapiens, UniProt P00734).
> 100 µM

Please indicate recorded IC50 of N=C(N)c1cccc(CC(NC(=O)[C@@H]2CC[C@H]3CN(C(=O)CCc4ccccc4)CC(=O)N32)C(=O)c2nc3ccccc3s2)c1 (stereo partly specified) measured with Prothrombin (Homo sapiens, UniProt P00734).
0.057 µM

---

pIC50: −log10 of the molar value.
Record set: pIC50 | Prothrombin (Homo sapiens) | literature, multiple sources.
Mark No for pIC50 values under 5, and Yes for everything at or above.

# check: pIC50 of CC(=N)N1CCC(Oc2ccc(N(Cc3nc4cc(C(=N)N)ccc4n3CC(=O)NCc3ccc(Cl)c(Cl)c3)C(=O)c3ccc(C(=O)O)cc3)cc2)CC1.Cl.Cl is greater than or equal to 5
No

# check: pIC50 of CS(=O)(=O)c1ccccc1-c1ccc(NC(=O)Cc2ccc3[nH]c(-c4ccc(Cl)s4)nc3c2)cc1 is greater than or equal to 5
No

# check: pIC50 of N=C(N)c1cccc(C(=O)N2Cc3ccc(O)cc3C[C@H]2C(=O)Nc2ccc(-c3ccccc3S(N)(=O)=O)cc2)c1 is greater than or equal to 5
No

# check: pIC50 of C[N+]1(Cc2ccc(C(=O)Nc3ccc(Cl)cc3C(=O)Nc3ccc(Cl)cn3)cc2)CCCC1 is greater than or equal to 5
No

# check: pIC50 of CC(C)C[C@H](NC(=O)NCc1ccc(Cl)c(Cl)c1)C(=O)N[C@H](C(=O)N[C@@H](CCCN=C(N)N)C(=O)c1nccs1)C(C)C is greater than or equal to 5
Yes

# check: pIC50 of N=C(N)c1ccc(CNC(=O)[C@@H](NC(=O)[C@@H](CC2CCCCC2)NCC(=O)O)C2CCNCC2)cc1 is greater than or equal to 5
No

# check: pIC50 of Cc1ccc2oc(=O)c(C(=O)Nc3ccccc3)cc2c1 is greater than or equal to 5
No

# check: pIC50 of C[C@@H](C(=O)N1CCC[C@H]1C(=O)N[C@H](C=O)CCCNC(=N)N)c1ccccc1 is greater than or equal to 5
Yes

# check: pIC50 of CCOC(=O)C(Cc1cc2cc(C(=N)N)ccc2o1)c1ccc(O[C@H]2CCNC2)cc1 (some centres undefined) is greater than or equal to 5
No

# check: pIC50 of CCNC(=O)N1C(=O)[C@H](CCCCC(=N)N)[C@H]2c3cc(-c4cccc(C(=O)N(CC)CC)c4)ccc3C[C@@H]21 is greater than or equal to 5
Yes

# check: pIC50 of N=C(N)c1ccc2oc(CCc3cc4cc(C(=N)N)ccc4o3)cc2c1 is greater than or equal to 5
Yes

# check: pIC50 of C[C@]1(O)CC[C@@H]2CC[C@@H](C(=O)NCc3ccc(C(=N)N)cc3)N2C1=O is greater than or equal to 5
Yes

# check: pIC50 of N=C(N)c1ccc(CNC(=O)C2CCC=C2C(=O)N2CCc3ccccc32)cc1 (centres undefined) is greater than or equal to 5
Yes

# check: pIC50 of CN1CCN(Cc2ccc(C(=O)Nc3ccc(Cl)cc3C(=O)Nc3ccc(Cl)cn3)cc2)CC1 is greater than or equal to 5
No
